Tested on: Fibroblast
Test: Multiplex assay against human fibroblast
Type: toxicity, cell-based
Settings: 48 h, 10 µM, compound concentration 10 uM, replicate 1
// False strictly below 30% in Population Healthy Nuclei (%); True otherwise

Use these answered entries as a reference point.
INSERT INTO measurements (molecule_smiles, label_class) VALUES
  ('Cc1c(P(=S)(c2ccccc2)c2ccccc2)n2ccccc2[n+]1C/C=C/c1ccccc1.[Br-]', 'False'),
  ('CC(C)c1cc(Nc2nc(N3CCC[C@H](N)C3)ncc2C(N)=O)cc(C(C)C)n1', 'False'),
  ('C[C@@H](Oc1cc(-n2cnc3ccc(CN4CCN(C)CC4)cc32)sc1C(N)=O)c1ccccc1C(F)(F)F', 'True');

Say whether CN(c1cc(C(F)(F)F)nc(OCCC(=O)O)n1)c1cccc2c1CCC2 shows Population Healthy Nuclei (%) of 30% or more.
True

C=CC(=O)Nc1cc(-n2c(=O)ccc3cnc4ccc(-c5ccc(NS(C)(=O)=O)cc5)cc4c32)ccc1C , same question.
True

Cc1ccc(S(=O)(=O)NC2c3ccccc3Oc3ccccc32)cc1 , same question.
True

CCCc1cc(C)[nH]c(=O)c1CNC(=O)c1cc(-c2ccc(N3CCN(C(C)C)CC3)nc2)cc2c1cnn2C(C)C , same question.
False

Cl.NC[C@@H]1O[C@H](C23CC4CC(CC(C4)C2)C3)Cc2c1ccc(O)c2O , same question.
True

N#Cc1cccc(C(=O)Nc2cc(-c3ccccc3)nn2-c2ccccc2)c1 , same question.
True

====

Measured Population Tubulin-Different-Phenotype (%) values are reported for all entries that follow.
Tested on: Fibroblast
Experiment: Multiplex assay against human fibroblast
Format: toxicity, cell-based
Details: 24 h, 1 µM, compound concentration 1 uM, replicate 1
Report as a plain number; the unit % is understood.

Some entries whose results are on file:
INSERT INTO measurements (compound, measured_result) VALUES
  ('CCCc1cc(C)[nH]c(=O)c1CNC(=O)c1cc(-c2ccc(N3CCN(C(C)C)CC3)nc2)cc2c1cnn2C(C)C', 85),
  ('CC(C)[C@H](CO)Nc1nc(Nc2cccc(Cl)c2)c2ncn(C(C)C)c2n1 [PURVALANOLA]', 60),
  ('Cc1c(P(=S)(c2ccccc2)c2ccccc2)n2ccccc2[n+]1C/C=C/c1ccccc1.[Br-]', 59),
  ('Cc1ccc(NC(=O)Nc2cc(C(F)(F)F)ccc2F)cc1Nc1ccc2c(c1)NC(=O)/C2=C\c1ccc[nH]1', 31),
  ('CCCCN(CC)c1nc(C)nc2c1c(C)cn2-c1c(C)cc(C)cc1C.Cl', 36);

Item CC(C)C[C@H](NC(=O)[C@H](Cc1ccccc1)NC(=O)CNC(=O)CNC(=O)[C@@H](N)Cc1ccc(O)cc1)C(=O)O [ENKEPHALIN] has what recorded Population Tubulin-Different-Phenotype (%)?
34

====

Tested on: Fibroblast
Assay: Multiplex assay against human fibroblast
Format: toxicity, cell-based
Conditions: 24 h, 1 µM, compound concentration 1 uM, replicate 1
QUANTITY MEASURED: Total Cell Count
# output: bare number, no unit

Some entries whose results are on file:
INSERT INTO assay_data (molecule_smiles, assayed_target, measured_result) VALUES
  ('CCCc1cc(C)[nH]c(=O)c1CNC(=O)c1cc(-c2ccc(N3CCN(C(C)C)CC3)nc2)cc2c1cnn2C(C)C', 'Fibroblast', 86),
  ('Cl.NC[C@@H]1O[C@H](C23CC4CC(CC(C4)C2)C3)Cc2c1ccc(O)c2O', 'Fibroblast', 213),
  ('CC(C)C[C@H](NC(=O)[C@H](Cc1ccccc1)NC(=O)CNC(=O)CNC(=O)[C@@H](N)Cc1ccc(O)cc1)C(=O)O', 'Fibroblast', 111),
  ('CC(/C=C1\SC(=S)N(CCCC(=O)Nc2ccc(C(=O)O)c(O)c2)C1=O)=C\c1ccccc1', 'Fibroblast', 155),
  ('CCOC(=O)CCNc1cc(N2CCc3ccccc3CC2)nc(-c2ccccn2)n1', 'Fibroblast', 225),
  ('CCOc1ccn(-c2ccc(F)cc2)c(=O)c1C(=O)Nc1ccc(Oc2ccnc(N)c2Cl)c(F)c1', 'Fibroblast', 226),
  ('Cc1c(Nc2ccc(S(=O)(=O)N3CCN(C)CC3)cc2F)nc2ccc(Nc3cnn(C4CC4)c3)cn2c1=O', 'Fibroblast', 257);

Item CC[C@H](Nc1ncnc2[nH]cnc12)c1nc2cccc(F)c2c(=O)n1-c1ccccc1 has what recorded Total Cell Count?
211

====

Measured Population Mitotic Cells (%) values are reported for all entries that follow.
System: Fibroblast
Assay: Multiplex assay against human fibroblast
Assay type: toxicity, cell-based
Conditions: 24 h, 1 µM, compound concentration 1 uM, replicate 2
Report as a plain number; the unit % is understood.

Some entries whose results are on file:
INSERT INTO assay_data (compound, assayed_target, quantity_measured, quantity_unit, measured_result) VALUES
  ('CC(C)[C@H](CO)Nc1nc(Nc2cccc(Cl)c2)c2ncn(C(C)C)c2n1', 'Fibroblast', 'Population Mitotic Cells (%)', '%', 40),
  ('Cl.Cn1c2c(c3ccc(Cl)c(Cl)c31)C(C#N)C1(CCNCC1)NC2=O (stereo unspecified)', 'Fibroblast', 'Population Mitotic Cells (%)', '%', 100),
  ('C=CC(=O)Nc1cc(-n2c(=O)ccc3cnc4ccc(-c5ccc(NS(C)(=O)=O)cc5)cc4c32)ccc1C', 'Fibroblast', 'Population Mitotic Cells (%)', '%', 44),
  ('CC[C@H](Nc1ncnc2[nH]cnc12)c1nc2cccc(F)c2c(=O)n1-c1ccccc1', 'Fibroblast', 'Population Mitotic Cells (%)', '%', 60),
  ('N#Cc1cccc(C(=O)Nc2cc(-c3ccccc3)nn2-c2ccccc2)c1', 'Fibroblast', 'Population Mitotic Cells (%)', '%', 85);

Item CN1C(=O)[C@@H](NC(=O)c2cc3ccccc3[nH]2)N=C(c2ccccc2)c2ccccc21 [DEVAZEPIDE] has what recorded Population Mitotic Cells (%)?
62

====

System: U2OS
Assay: Multiplex assay against U2OS
Format: toxicity, cell-based
Conditions: human, 24 h, 10 µM, compound concentration 10 uM, replicate 1
One threshold, 20%, splits the recorded Population Mitotic Cells (%) values: lower ones are satisfied, equal or higher ones are not satisfied.

Use these answered entries as a reference point.
INSERT INTO assay_data (compound, assayed_target, label_class) VALUES
  ('NC(=O)c1ccc2nc(-c3ccc(C4(N)CCC4)cc3)c(-c3ccccc3)n2n1 [BAY-1125976]', 'U2OS', 'not satisfied'),
  ('CN(c1cc(C(F)(F)F)nc(OCCC(=O)O)n1)c1cccc2c1CCC2', 'U2OS', 'not satisfied'),
  ('Cl.NC[C@@H]1O[C@H](C23CC4CC(CC(C4)C2)C3)Cc2c1ccc(O)c2O', 'U2OS', 'not satisfied'),
  ('Oc1cccc(-c2nc(N3CCOCC3)c3oc4ncccc4c3n2)c1 [PI-103]', 'U2OS', 'not satisfied'),
  ('CCCc1cc(C)[nH]c(=O)c1CNC(=O)c1cc(-c2ccc(N3CCN(C(C)C)CC3)nc2)cc2c1cnn2C(C)C', 'U2OS', 'satisfied'),
  ('Cl.Cn1c2c(c3ccc(Cl)c(Cl)c31)C(C#N)C1(CCNCC1)NC2=O (stereo not given)', 'U2OS', 'satisfied'),
  ('CC(/C=C1\SC(=S)N(CCCC(=O)Nc2ccc(C(=O)O)c(O)c2)C1=O)=C\c1ccccc1', 'U2OS', 'not satisfied'),
  ('N#Cc1cccc(C(=O)Nc2cc(-c3ccccc3)nn2-c2ccccc2)c1', 'U2OS', 'not satisfied');

Moving on to another compound below.
Is the reported Population Mitotic Cells (%) for c1ccc(-c2oc3ncnc(NC[C@@H]4CCCO4)c3c2-c2ccccc2)cc1 strictly below 20%?
satisfied

====

Measured Population Membrane Permeable-Phenotype (%) values are reported for all entries that follow.
Tested on: U2OS
Test: Multiplex assay against U2OS
Assay type: toxicity, cell-based
Details: human, 12 h, 1 µM, compound concentration 1 uM, replicate 2
Report as a plain number; the unit % is understood.

Some entries whose results are on file:
INSERT INTO measurements (compound, assayed_target, measured_result) VALUES
  ('CC(Cc1ccc(O)c(O)c1)C(C)Cc1ccc(O)c(O)c1 (stereo not drawn) [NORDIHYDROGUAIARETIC ACID]', 'U2OS', 0),
  ('C=CC(=O)Nc1cc(-n2c(=O)ccc3cnc4ccc(-c5ccc(NS(C)(=O)=O)cc5)cc4c32)ccc1C', 'U2OS', 0),
  ('CC[C@H](Nc1ncnc2[nH]cnc12)c1nc2cccc(F)c2c(=O)n1-c1ccccc1', 'U2OS', 45),
  ('Cc1ccc(S(=O)(=O)NC2c3ccccc3Oc3ccccc32)cc1', 'U2OS', 0),
  ('CCOC(=O)CCNc1cc(N2CCc3ccccc3CC2)nc(-c2ccccn2)n1', 'U2OS', 13);

Item C[C@@H](Oc1cc(-n2cnc3ccc(CN4CCN(C)CC4)cc32)sc1C(N)=O)c1ccccc1C(F)(F)F has what recorded Population Membrane Permeable-Phenotype (%)?
12

Cc1c(Nc2ccc(S(=O)(=O)N3CCN(C)CC3)cc2F)nc2ccc(-c3cnn(C4CC4)c3)cn2c1=O , same question.
10

CN1C(=O)[C@@H](NC(=O)c2cc3ccccc3[nH]2)N=C(c2ccccc2)c2ccccc21 [DEVAZEPIDE] , same question.
9
